# System: ACHN renal
# ASSAY_TEXT: NCI tumour cell line growth inhibition, 48 h; in the data active means GI50 below about 0.43 µM; inactive means the rest
I would appreciate it if you answered using one of these outcomes: active, inactive

# COMPOUND, CATEGORY
records = [
    ("C[C@H](C(=O)N[C@@H](Cc1ccc(-c2ccccc2)cc1)C(=O)NC1CC(C)(C)N(C)C(C)(C)C1)c1ccc(-c2ccccc2)c(F)c1", "inactive"),
    ("COc1nc2c(cc1S(=O)(=O)c1ccccc1)CCc1c-2cnn1Cc1ccccc1", "inactive"),
    ("COc1cccc2c1nc1cccc(OC)c1[n+]2[O-]", "inactive"),
    ("C[C@@H]1[C@H]2[C@H](C=C3[C@@H]4CC[C@H]5Cc6nc7c(nc6C[C@]5(C)[C@H]4C[C@@H](O)[C@@]32C)C[C@@H]2CC[C@H]3C4=C[C@@H]5O[C@@]6(CC[C@](C)(CO)O6)[C@@H](C)[C@@]5(O)[C@@]4(C)[C@H](O)C[C@@H]3[C@@]2(C)C7)O[C@]12CCC(C)(C)O2", "inactive"),
    ("COc1ccc(-c2nn(-c3ccc(NC(=O)Nc4ccc(Cl)c(Cl)c4)cc3)cc2-c2ccncc2)cc1Cl", "inactive"),
]

Then this compound:
### Prompt Please let me know the test result on file for FC(F)(F)c1[nH]ncc1-c1nc2c(N3CCCCC3)cc3[nH]ncc3c2c2c1CCCC2 .
### Response inactive

* * *

# Test system: HCT-116 colon
# ASSAY_TEXT: NCI tumour cell line growth inhibition, 48 h
MEASURE: GI50

Worked examples, 3 compounds total:
# CHEM_SMILES, GI50
measured = [
    ("FC(F)(F)c1[nH]ncc1-c1nc2c(N3CCCCC3)cc3[nH]ncc3c2c2c1CCCC2", "0.432 µM"),
    ("Cc1cc(C(=O)N[C@@H](CCC(=O)O)C(=O)O)sc1CC[C@@H]1CNc2nc(N)[nH]c(=O)c2C1", "< 0.0127 µM"),
    ("CN(C)CCN1C(=O)c2cccc3c(N)ccc(c23)C1=O", "9.49 µM"),
]

Next:
### Prompt Item under review: S=c1nc[nH]c2nc[nH]c12 . Reported GI50?
### Response 5.4 µM

* * *

# Tested on: HCT-15 colon
# ASSAY_TEXT: NCI tumour cell line growth inhibition, 48 h
Recorded TGI for the following molecules

Worked examples, 4 molecules total:
# CHEM_SMILES, READING
records = [
    ("O=C(O)c1c([N+](=O)[O-])cc(C(F)(F)F)cc1[N+](=O)[O-]", "> 100 µM"),
    ("CC1(C)C(=O)N(O)C(C)(C)N1N=O", "> 10 µM"),
    ("Clc1nc(Cl)c2ncn(C/C=C/Cn3cnc4c(Cl)nc(Cl)nc43)c2n1", "30.2 µM"),
    ("CN1CCC(C(=O)NNc2ccccc2)CC1", "> 51.1 µM"),
]

### Prompt Item under review: CN(C)c1ccc(/C=C/c2ccnc3ccc4ccccc4c23)cc1 . Reported TGI?
### Response > 100 µM

### Prompt Item under review: CCN(CC)CCOc1ccc(N2Cc3ccccc3C2=O)cc1 . Reported TGI?
### Response > 10 µM

### Prompt Item under review: Cc1ccc(P(c2ccc(C)cc2)c2ccc(C)cc2)cc1 . Reported TGI?
### Response > 100 µM

### Prompt Item under review: N.N.N.N.N.N#N.[Cl-].[Os+7] . Reported TGI?
### Response > 100 µM

* * *

Recorded TGI for the following molecules
# Tested on: MDA-MB-435
# ASSAY_TEXT: NCI tumour cell line growth inhibition, 48 h

Worked examples, 8 molecules total:
# MOLECULE, TGI
data = [
    ("S=c1nc[nH]c2nc[nH]c12", "> 750 µM"),
    ("CCCCC1C(=O)N(c2ccc(S(=O)(=O)Nc3ccccn3)cc2)N(c2ccc(O)c(C(=O)O)c2)C1=O (stereo not given)", "> 100 µM"),
    ("COc1cc(/C=C/C=C2\\CCC/C(=C\\C=C\\c3ccc(O)c(OC)c3)C2=O)ccc1O", "> 100 µM"),
    ("C=CCC(N[C@@H](CO)c1ccccc1)c1ccccn1 (stereo not given in full)", "> 100 µM"),
    ("COC(=O)C1=C([C@H]2COC(C)(C)O2)[C@H]2C[C@@H]1[C@@H]1OC(C)(C)O[C@@H]12", "> 100 µM"),
    ("COc1cccc(CCn2c(N)c(C(=O)O)c3ccc([N+](=O)[O-])cc3c2=O)c1", "> 100 µM"),
    ("COc1cc(-c2nc(-c3nnc(-c4ccc(F)c(Cl)c4)o3)c3ccccn23)cc(OC)c1OC", "> 100 µM"),
    ("CCOC(=O)c1c(C)noc1/N=N/N(CCO)CCO", "> 100 µM"),
]

### Prompt Item under review: C=CCOc1ccc(C2(c3ccc(OCC=C)cc3)C(=O)Nc3ccccc32)cc1 . Reported TGI?
### Response > 10 µM

### Prompt Item under review: CCOC(=O)CCC(NC(=O)c1ccc(Nc2cnc3cc(C(F)(F)F)ccc3n2)cc1)C(=O)OCC (stereo not given) . Reported TGI?
### Response > 100 µM

* * *

Recorded TGI for the following molecules
# Test system: SK-OV-3 ovarian
# ASSAY_TEXT: NCI tumour cell line growth inhibition, 48 h

# MOLECULE, TGI
records = [
    ("O=C(O)CC(C(=O)O)C1c2ccccc2-c2ccccc21 (stereo not drawn)", "> 100 µM"),
]

### Prompt Item under review: COc1ccc([C@@H]2CC(=O)NCCCNCCCCNCCCN2)cc1 . Reported TGI?
### Response > 100 µM

### Prompt Item under review: Nc1ccc(-c2ccc(Nc3cc(S(=O)(=O)O)c(N)c4c3C(=O)c3ccccc3C4=O)cc2)c(S(=O)(=O)O)c1 . Reported TGI?
### Response > 100 µM

### Prompt Item under review: COc1ccc(OC)c(/C=C/C(=O)C(C)(C)C)c1 . Reported TGI?
### Response 90.4 µM

### Prompt Item under review: O=C(Nc1ccc(Cl)cc1F)c1cc(F)ccc1O . Reported TGI?
### Response 10.4 µM

### Prompt Item under review: [C-]#[O+].[C-]#[O+].[Ir].[O-]c1ccc2ccccc2c1N=Nc1ccccc1 . Reported TGI?
### Response > 68 µM

### Prompt Item under review: N#CC(c1ccccc1)N(CCc1ccccc1)C(=O)c1ccccc1 (stereo not drawn) . Reported TGI?
### Response > 100 µM

### Prompt Item under review: COc1cccc(CCn2c(N)c(C(=O)O)c3ccc([N+](=O)[O-])cc3c2=O)c1 . Reported TGI?
### Response > 100 µM

### Prompt Item under review: CN(C(=O)[C@@H](NC(=O)OC(C)(C)C)c1ccccc1)[C@H]1CCCC[C@@H]1N1CCCC1 . Reported TGI?
### Response > 100 µM

### Prompt Item under review: CCCCC1C(=O)N(c2ccc(S(=O)(=O)Nc3ccccn3)cc2)N(c2ccc(O)c(C(=O)O)c2)C1=O (stereo not drawn) . Reported TGI?
### Response > 100 µM

### Prompt Item under review: C=C(CN(C)C)C(=O)c1ccc(C)cc1C . Reported TGI?
### Response 39.6 µM

### Prompt Item under review: C/C(=N/NC(=S)N(C)CCc1ccccn1)c1cnccn1 . Reported TGI?
### Response 0.947 µM

### Prompt Item under review: Cc1cc(C)c(S(=O)(=O)N(CCCCCCN)OCCCN)c(C)c1 . Reported TGI?
### Response 34 µM

* * *

# Tested on: SK-OV-3 ovarian
# ASSAY_TEXT: NCI tumour cell line growth inhibition, 48 h; in the data active = GI50 below about 0.43 µM; inactive = the rest
I would appreciate it if you answered using one of these outcomes: active, inactive

Consider the following illustrative entries.
# COMPOUND, CATEGORY
measured = [
    ("Cc1cc(C(=O)N[C@@H](CCC(=O)O)C(=O)O)sc1CC[C@@H]1CNc2nc(N)[nH]c(=O)c2C1", "active"),
    ("CC(C)(C)OC(=O)N1CC(Cn2cc(C(F)(F)F)c3c(Cl)ncnc32)C1", "inactive"),
    ("CN(C)CCN1C(=O)c2cccc3c(N)ccc(c23)C1=O", "inactive"),
    ("O=C1c2ccc3c4c(ccc(c24)C(=O)N1CCCNCc1ccccc1)C(=O)N(CCCNCc1ccccc1)C3=O", "active"),
    ("CCN1CCC2(CC1)NC(=O)c1c(c3ccc(Cl)c(Cl)c3n1C)C2C#N (stereo unspecified)", "inactive"),
    ("C[n+]1c2cc(N)ccc2cc2ccc(N)cc21 (tested in a mixture with another compound)", "inactive"),
    ("Cc1cc(S(N)(=O)=O)c(S/C(=N\\Nc2ccc([N+](=O)[O-])cc2)c2ccc(O)cc2)cc1Cl", "inactive"),
    ("C=CCC(N[C@@H](CO)c1ccccc1)c1ccccn1 (stereo partly specified)", "inactive"),
    ("COc1ccc2c(c1)CC[C@@H]1[C@@H]2CC[C@]2(C)c3[nH]ncc3C[C@@H]12", "inactive"),
    ("COc1ccc2[nH]c(-c3ccccc3)c(C=C(C#N)C#N)c2c1", "inactive"),
]

Then this compound:
### Prompt Please let me know the test result on file for COc1cc2cn3c4ccc(O)cc4nc(N)c3c2cc1OC .
### Response active
